Test system: Escherichia coli TOP10;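 note: peptides expressed intracellularly from a pBAD plasmid library in pooled LB shake-flask culture, induced with 0.3% L-arabinose, DNA abundance read by NGS, three biological replicates, DESeq2 with apeglm shrinkage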
Run Description: shrunken log2 fold change of peptide-encoding DNA abundance (4.5 h post-induction vs induction); higher = less antimicrobial activity (less host growth inhibition)
Test Parameters: time post-induction: 4.5 h; library: site-saturation at positions 5, 18, 19, 20
# reported shrunken log2 fold change; entries follow

{"Macromolecule Sequence": "RRIRKRPPRLPRPRPRPYWHPRP", "shrunken log2 fold change": -0.684}
{"Macromolecule Sequence": "RRIRGRPPRLPRPRPRPGRRPRP", "shrunken log2 fold change": 0.849}
{"Macromolecule Sequence": "RRIRIRPPRLPRPRPRPFPYPRP", "shrunken log2 fold change": -0.288}
{"Macromolecule Sequence": "RRIRHRPPRLPRPRPRPYRAPRP", "shrunken log2 fold change": -0.258}
{"Macromolecule Sequence": "RRIRNRPPRLPRPRPRPNWVPRP", "shrunken log2 fold change": 0.0876}
{"Macromolecule Sequence": "RRIRERPPRLPRPRPRPGFGPRP", "shrunken log2 fold change": 0.0959}
{"Macromolecule Sequence": "RRIRARPPRLPRPRPRPDTEPRP", "shrunken log2 fold change": 0.00829}
{"Macromolecule Sequence": "RRIRDRPPRLPRPRPRPMCCPRP", "shrunken log2 fold change": 0.0249}
{"Macromolecule Sequence": "RRIRHRPPRLPRPRPRPDMQPRP", "shrunken log2 fold change": -0.106}
{"Macromolecule Sequence": "RRIRCRPPRLPRPRPRPWFHPRP", "shrunken log2 fold change": -1.28}
{"Macromolecule Sequence": "RRIRLRPPRLPRPRPRPAWRPRP", "shrunken log2 fold change": 0.454}
{"Macromolecule Sequence": "RRIRGRPPRLPRPRPRPNYEPRP", "shrunken log2 fold change": 0.161}
{"Macromolecule Sequence": "RRIRIRPPRLPRPRPRPFKFPRP", "shrunken log2 fold change": -0.702}
{"Macromolecule Sequence": "RRIRGRPPRLPRPRPRPVKGPRP", "shrunken log2 fold change": 0.276}
{"Macromolecule Sequence": "RRIRVRPPRLPRPRPRPFECPRP", "shrunken log2 fold change": -0.0624}
{"Macromolecule Sequence": "RRIRARPPRLPRPRPRPTVKPRP", "shrunken log2 fold change": 0.143}
{"Macromolecule Sequence": "RRIRSRPPRLPRPRPRPDYIPRP", "shrunken log2 fold change": -0.443}
{"Macromolecule Sequence": "RRIRLRPPRLPRPRPRPGACPRP", "shrunken log2 fold change": 0.264}
{"Macromolecule Sequence": "RRIRVRPPRLPRPRPRPRFFPRP", "shrunken log2 fold change": 0.287}
{"Macromolecule Sequence": "RRIRDRPPRLPRPRPRPNIGPRP", "shrunken log2 fold change": -0.0132}
{"Macromolecule Sequence": "RRIRKRPPRLPRPRPRPALPPRP", "shrunken log2 fold change": 0.936}
{"Macromolecule Sequence": "RRIRSRPPRLPRPRPRPIPEPRP", "shrunken log2 fold change": 0.208}
{"Macromolecule Sequence": "RRIRNRPPRLPRPRPRPEQRPRP", "shrunken log2 fold change": 0.00383}
{"Macromolecule Sequence": "RRIRSRPPRLPRPRPRPSDDPRP", "shrunken log2 fold change": -0.274}
{"Macromolecule Sequence": "RRIRKRPPRLPRPRPRPPNGPRP", "shrunken log2 fold change": 0.189}
{"Macromolecule Sequence": "RRIRYRPPRLPRPRPRPWDQPRP", "shrunken log2 fold change": 0.0123}
{"Macromolecule Sequence": "RRIRGRPPRLPRPRPRPLSQPRP", "shrunken log2 fold change": 0.872}
{"Macromolecule Sequence": "RRIRNRPPRLPRPRPRPICIPRP", "shrunken log2 fold change": -0.531}
{"Macromolecule Sequence": "RRIRSRPPRLPRPRPRPTGTPRP", "shrunken log2 fold change": -0.0039}
{"Macromolecule Sequence": "RRIRARPPRLPRPRPRPHMNPRP", "shrunken log2 fold change": -0.245}
{"Macromolecule Sequence": "RRIRHRPPRLPRPRPRPDWRPRP", "shrunken log2 fold change": 0.147}
{"Macromolecule Sequence": "RRIRWRPPRLPRPRPRPFDHPRP", "shrunken log2 fold change": 0.124}
{"Macromolecule Sequence": "RRIRKRPPRLPRPRPRPFKEPRP", "shrunken log2 fold change": -0.0549}
{"Macromolecule Sequence": "RRIRWRPPRLPRPRPRPKPWPRP", "shrunken log2 fold change": 0.515}
{"Macromolecule Sequence": "RRIRQRPPRLPRPRPRPEHWPRP", "shrunken log2 fold change": 0.0788}
{"Macromolecule Sequence": "RRIRYRPPRLPRPRPRPKIFPRP", "shrunken log2 fold change": -0.297}
{"Macromolecule Sequence": "RRIRMRPPRLPRPRPRPVFHPRP", "shrunken log2 fold change": -0.341}
{"Macromolecule Sequence": "RRIRARPPRLPRPRPRPPWAPRP", "shrunken log2 fold change": 0.576}
{"Macromolecule Sequence": "RRIRARPPRLPRPRPRPDLIPRP", "shrunken log2 fold change": 0.235}
{"Macromolecule Sequence": "RRIRFRPPRLPRPRPRPRLPPRP", "shrunken log2 fold change": 1.13}
{"Macromolecule Sequence": "RRIRHRPPRLPRPRPRPMPFPRP", "shrunken log2 fold change": 0.0462}
{"Macromolecule Sequence": "RRIRDRPPRLPRPRPRPNPQPRP", "shrunken log2 fold change": -0.19}
{"Macromolecule Sequence": "RRIRNRPPRLPRPRPRPIFEPRP", "shrunken log2 fold change": 0.0552}
{"Macromolecule Sequence": "RRIRHRPPRLPRPRPRPYELPRP", "shrunken log2 fold change": -0.116}
{"Macromolecule Sequence": "RRIRWRPPRLPRPRPRPEELPRP", "shrunken log2 fold change": -0.00088}
{"Macromolecule Sequence": "RRIRNRPPRLPRPRPRPTSNPRP", "shrunken log2 fold change": -0.615}
{"Macromolecule Sequence": "RRIRMRPPRLPRPRPRPTIFPRP", "shrunken log2 fold change": -0.0388}
{"Macromolecule Sequence": "RRIRKRPPRLPRPRPRPMLRPRP", "shrunken log2 fold change": 0.308}
{"Macromolecule Sequence": "RRIRQRPPRLPRPRPRPQKKPRP", "shrunken log2 fold change": -0.214}
{"Macromolecule Sequence": "RRIRCRPPRLPRPRPRPRIWPRP", "shrunken log2 fold change": 0.0951}
{"Macromolecule Sequence": "RRIRIRPPRLPRPRPRPVWTPRP", "shrunken log2 fold change": -0.273}
{"Macromolecule Sequence": "RRIRWRPPRLPRPRPRPKWDPRP", "shrunken log2 fold change": 0.185}
{"Macromolecule Sequence": "RRIRWRPPRLPRPRPRPAMDPRP", "shrunken log2 fold change": 0.109}
{"Macromolecule Sequence": "RRIRQRPPRLPRPRPRPDYSPRP", "shrunken log2 fold change": -0.0839}
{"Macromolecule Sequence": "RRIRSRPPRLPRPRPRPPMSPRP", "shrunken log2 fold change": -0.0301}

Source of measurements: the supplement of paper PMC9112550
